studyTarget: Xanthine Oxidase (from buttermilk) (Bos taurus)
Construct: Xanthine Oxidase (from buttermilk, Sigma Co., Ltd. X4875); purchased Sigma Co., Ltd. X4875; host or cells: buttermilk
Sequence (P80457 whole entry): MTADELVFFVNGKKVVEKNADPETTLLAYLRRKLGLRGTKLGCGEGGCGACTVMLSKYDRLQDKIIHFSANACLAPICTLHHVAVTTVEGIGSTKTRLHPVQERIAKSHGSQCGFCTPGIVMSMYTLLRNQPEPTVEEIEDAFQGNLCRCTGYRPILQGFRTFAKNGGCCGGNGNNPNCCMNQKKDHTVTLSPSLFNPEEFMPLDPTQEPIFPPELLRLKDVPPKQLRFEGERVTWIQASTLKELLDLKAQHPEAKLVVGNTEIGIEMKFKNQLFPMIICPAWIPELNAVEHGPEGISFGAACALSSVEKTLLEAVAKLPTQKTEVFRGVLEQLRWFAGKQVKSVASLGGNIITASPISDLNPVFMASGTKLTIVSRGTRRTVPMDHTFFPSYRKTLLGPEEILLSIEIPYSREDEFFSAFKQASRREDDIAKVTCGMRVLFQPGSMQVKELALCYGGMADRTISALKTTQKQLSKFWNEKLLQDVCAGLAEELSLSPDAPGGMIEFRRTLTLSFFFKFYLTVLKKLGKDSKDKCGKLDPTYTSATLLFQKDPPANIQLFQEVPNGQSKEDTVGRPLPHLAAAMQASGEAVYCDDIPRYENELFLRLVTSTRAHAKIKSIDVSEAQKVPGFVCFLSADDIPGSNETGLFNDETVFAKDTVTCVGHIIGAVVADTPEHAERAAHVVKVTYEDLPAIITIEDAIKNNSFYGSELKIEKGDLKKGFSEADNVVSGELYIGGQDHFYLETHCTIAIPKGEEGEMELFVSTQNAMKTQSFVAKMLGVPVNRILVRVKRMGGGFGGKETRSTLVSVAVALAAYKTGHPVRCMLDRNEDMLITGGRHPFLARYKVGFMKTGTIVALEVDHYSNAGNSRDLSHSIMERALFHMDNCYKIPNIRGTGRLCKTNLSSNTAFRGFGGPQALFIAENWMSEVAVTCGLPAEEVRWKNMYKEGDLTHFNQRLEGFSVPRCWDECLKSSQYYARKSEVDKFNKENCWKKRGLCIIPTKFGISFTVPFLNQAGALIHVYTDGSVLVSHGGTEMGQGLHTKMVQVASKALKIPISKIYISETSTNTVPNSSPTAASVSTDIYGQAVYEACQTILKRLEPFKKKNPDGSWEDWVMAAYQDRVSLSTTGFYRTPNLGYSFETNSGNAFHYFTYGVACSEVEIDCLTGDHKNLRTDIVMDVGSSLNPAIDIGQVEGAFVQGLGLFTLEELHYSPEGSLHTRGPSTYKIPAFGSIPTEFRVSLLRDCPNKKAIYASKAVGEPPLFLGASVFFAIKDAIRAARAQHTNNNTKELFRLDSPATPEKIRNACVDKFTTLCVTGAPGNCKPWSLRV
assaySummary: In vitro XOD inhibitory activity (Xanthine Oxidase Detection Kit)
Type: biochemical
testParameters: read-out: XOD inhibitory activity % inhibition (1.5 mg/mL)
# reported inhibition at 1500 µg/mL; entries follow
readoutLabel: inhibition at 1500 µg/mL (%)

>>> df
                                   compound  reading
0  O[C@@H]1[C@@H](O)[C@H](OC/C=C/c2ccccc2)O[C@H](CO[C@@H]2OC[C@H](O)[C@H](O)[C@H]2O)[C@H]1O [Compound 20, Rosavin]       73
1  COc1cc(C=CCO[C@@H]2O[C@H](CO)[C@@H](O)[C@H](O)[C@H]2O)cc(OC)c1OC [Compound 10h]       33
2  OC[C@H]1O[C@@H](OCC=Cc2cccc(O)c2)[C@H](O)[C@@H](O)[C@@H]1O [Compound 16b, 3-Hydroxycinnamyl β-D-glucopyranoside]       41

###

# reported inhibition at 1500 µg/mL; entries follow
studyTarget: AChE (from drosophila) (Drosophila melanogaster, UniProt P07140)
Construct: purchased Jing Peng Bio-Pesticide Co., Ltd. Shandong, P. R. China
assaySummary: In vitro AChE inhibitory activity (Acetylcholinesterase Detection Kit)
Format: biochemical
testParameters: 1.5 mg/mL; compounds in 1% DMSO; mean ± SD, triplicate; read-out: AChE inhibitory activitiy % inhibition (1.5 mg/mL)
readoutLabel: inhibition at 1500 µg/mL (%)

In [3]: df
Out[3]:
                                   molecule                               studytarget              readoutlabel  reading
0  COc1ccc(C=CCO[C@@H]2O[C@H](CO)[C@@H](O)[C@H](O)[C@H]2O)cc1OC [Compound 10d]  AChE (from drosophila) (Drosophila melanogaster, UniProt P07140)  inhibition at 1500 µg/mL       43
1  COc1cc(C=CCO[C@@H]2O[C@H](CO)[C@@H](O)[C@H](O)[C@H]2O)cc(OC)c1OC [Compound 10h]  AChE (from drosophila) (Drosophila melanogaster, UniProt P07140)  inhibition at 1500 µg/mL       17
2  O[C@@H]1[C@@H](O)[C@H](OCC=Cc2ccccc2)O[C@H](CO[C@@H]2OC[C@@H](O)[C@H](O)[C@H]2O)[C@H]1O  AChE (from drosophila) (Drosophila melanogaster, UniProt P07140)  inhibition at 1500 µg/mL       82
3  COc1ccc(C=CCO[C@@H]2O[C@H](CO[C@@H]3OC[C@H](O)[C@H](O)[C@H]3O)[C@@H](O)[C@H](O)[C@H]2O)cc1  AChE (from drosophila) (Drosophila melanogaster, UniProt P07140)  inhibition at 1500 µg/mL       72
4  COc1cccc(C=CCO[C@@H]2O[C@H](CO)[C@@H](O)[C@H](O)[C@H]2O)c1OC [Compound 10e]  AChE (from drosophila) (Drosophila melanogaster, UniProt P07140)  inhibition at 1500 µg/mL       34
5  OC[C@H]1O[C@@H](OCC=Cc2ccc(O)cc2)[C@H](O)[C@@H](O)[C@@H]1O [Compound 16a, 4-Hydroxycinnamyl β-D-glucopyranoside]  AChE (from drosophila) (Drosophila melanogaster, UniProt P07140)  inhibition at 1500 µg/mL       34
6  COc1cc(C=CCO[C@@H]2O[C@H](CO)[C@@H](O)[C@H](O)[C@H]2O)cc(OC)c1 [Compound 10c]  AChE (from drosophila) (Drosophila melanogaster, UniProt P07140)  inhibition at 1500 µg/mL       23
